Target Under Test: CSF1R-autoinhibited (Homo sapiens)
Construct: purchased Eurofins DiscoverX KINOMEscan (scanTK)
Sequence (P07333 539-972 limits assumed): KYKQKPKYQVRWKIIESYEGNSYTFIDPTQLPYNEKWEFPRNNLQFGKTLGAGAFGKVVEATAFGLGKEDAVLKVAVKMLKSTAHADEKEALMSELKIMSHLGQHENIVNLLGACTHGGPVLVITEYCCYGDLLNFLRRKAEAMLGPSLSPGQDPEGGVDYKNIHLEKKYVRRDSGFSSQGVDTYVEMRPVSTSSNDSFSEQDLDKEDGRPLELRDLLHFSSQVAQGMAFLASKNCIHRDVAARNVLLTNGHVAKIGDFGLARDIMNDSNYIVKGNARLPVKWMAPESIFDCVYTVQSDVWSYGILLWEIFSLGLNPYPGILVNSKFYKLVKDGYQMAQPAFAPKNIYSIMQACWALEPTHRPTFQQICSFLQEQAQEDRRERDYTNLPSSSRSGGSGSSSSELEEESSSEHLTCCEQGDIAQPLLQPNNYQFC
Assay Summary: KINOMEscan ScanTK
Format: binding
Condition Parameters: @1000nM, read-out: %Control
Each record here notes measured remaining binding at 1 µM.

>  <Compound>
Cc1cnc(S(C)(=O)=O)nc1N1CCCC(n2nc(-c3ccc(Oc4ccccc4)cc3)c3c(N)ncnc32)C1 (centres unmarked)

>  <remaining binding at 1 µM>
88%

$$$$
>  <Compound>
CNC(=O)c1cnc(S(C)(=O)=O)nc1N1CCCC(n2nc(-c3ccc(Oc4ccccc4)cc3)c3c(N)ncnc32)C1 (centres unmarked)

>  <remaining binding at 1 µM>
86%

$$$$
>  <Compound>
C=CC(=O)N1CCC[C@@H](n2nc(-c3ccc(Oc4ccccc4)cc3)c3c(N)ncnc32)C1 [Compound 1g, Ibrutinib, reference compound]

>  <remaining binding at 1 µM>
77%

$$$$
>  <Compound>
COC(=O)c1cnc(S(C)(=O)=O)nc1N1CCCC(n2nc(-c3ccc(Oc4ccccc4)cc3)c3c(N)ncnc32)C1 (centres unmarked)

>  <remaining binding at 1 µM>
84%

$$$$
>  <Compound>
CCOC(=O)c1cnc(S(C)(=O)=O)nc1N1CCC[C@@H](n2nc(-c3ccc(Oc4ccccc4)cc3)c3c(N)ncnc32)C1

>  <remaining binding at 1 µM>
97%

$$$$

====

Target Under Test: ALK (Homo sapiens, UniProt Q9UM73)
Construct: purchased Eurofins DiscoverX KINOMEscan (scanTK)
Sequence (Q9UM73 19-1620): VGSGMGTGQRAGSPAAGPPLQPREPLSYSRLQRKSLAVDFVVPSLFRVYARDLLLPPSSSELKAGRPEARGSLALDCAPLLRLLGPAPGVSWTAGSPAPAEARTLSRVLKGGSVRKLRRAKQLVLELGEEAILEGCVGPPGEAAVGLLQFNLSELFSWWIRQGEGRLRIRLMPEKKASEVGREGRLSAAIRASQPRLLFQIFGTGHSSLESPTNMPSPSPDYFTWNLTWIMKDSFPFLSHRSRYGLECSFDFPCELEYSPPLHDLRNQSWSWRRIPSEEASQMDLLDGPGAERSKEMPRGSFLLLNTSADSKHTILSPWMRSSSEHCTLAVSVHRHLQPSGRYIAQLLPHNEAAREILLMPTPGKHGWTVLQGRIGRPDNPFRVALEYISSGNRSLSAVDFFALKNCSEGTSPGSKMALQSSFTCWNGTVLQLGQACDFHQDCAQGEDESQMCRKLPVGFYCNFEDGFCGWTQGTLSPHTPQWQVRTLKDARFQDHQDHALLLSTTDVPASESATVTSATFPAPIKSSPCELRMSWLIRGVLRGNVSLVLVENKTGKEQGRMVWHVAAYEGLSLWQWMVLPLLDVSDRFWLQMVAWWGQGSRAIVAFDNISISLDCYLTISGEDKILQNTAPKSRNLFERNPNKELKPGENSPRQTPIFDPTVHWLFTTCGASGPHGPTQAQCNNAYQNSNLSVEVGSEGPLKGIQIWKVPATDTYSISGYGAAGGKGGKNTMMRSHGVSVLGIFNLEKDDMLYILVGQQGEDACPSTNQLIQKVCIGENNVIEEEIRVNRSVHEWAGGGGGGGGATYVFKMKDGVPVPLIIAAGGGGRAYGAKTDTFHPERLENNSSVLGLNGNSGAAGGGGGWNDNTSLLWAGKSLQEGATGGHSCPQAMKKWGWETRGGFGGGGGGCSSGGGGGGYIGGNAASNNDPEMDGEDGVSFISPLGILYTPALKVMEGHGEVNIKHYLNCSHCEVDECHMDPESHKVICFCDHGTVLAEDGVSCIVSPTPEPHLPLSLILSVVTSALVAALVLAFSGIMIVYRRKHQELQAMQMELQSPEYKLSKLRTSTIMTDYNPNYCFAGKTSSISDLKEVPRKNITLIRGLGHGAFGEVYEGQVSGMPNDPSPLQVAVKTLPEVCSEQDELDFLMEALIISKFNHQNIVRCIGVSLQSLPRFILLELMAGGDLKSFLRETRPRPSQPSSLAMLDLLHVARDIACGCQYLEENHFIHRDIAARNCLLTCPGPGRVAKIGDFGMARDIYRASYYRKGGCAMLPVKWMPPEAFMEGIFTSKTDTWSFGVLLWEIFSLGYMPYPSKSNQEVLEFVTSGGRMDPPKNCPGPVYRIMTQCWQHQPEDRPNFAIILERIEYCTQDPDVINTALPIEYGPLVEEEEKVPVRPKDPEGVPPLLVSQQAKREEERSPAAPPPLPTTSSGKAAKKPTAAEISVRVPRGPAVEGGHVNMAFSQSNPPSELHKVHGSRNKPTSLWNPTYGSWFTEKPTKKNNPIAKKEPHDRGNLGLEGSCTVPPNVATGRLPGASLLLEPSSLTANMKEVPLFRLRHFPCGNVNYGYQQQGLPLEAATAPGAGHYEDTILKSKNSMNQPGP
Assay Summary: KINOMEscan ScanTK
Type: binding
Condition Parameters: read-out: %Control @1000nM
Cut-off 90% on remaining binding at 1 µM: below means True, at or above means False.

>  <Compound>
COC(=O)c1cnc(S(C)(=O)=O)nc1N1CCCC(n2nc(-c3ccc(Oc4ccccc4)cc3)c3c(N)ncnc32)C1 (centres unmarked) [Compound 8b]

>  <Class>
False

$$$$
>  <Compound>
C=CC(=O)N1CCC[C@@H](n2nc(-c3ccc(Oc4ccccc4)cc3)c3c(N)ncnc32)C1 [Compound 1g, Ibrutinib, reference compound]

>  <Class>
False

$$$$
>  <Compound>
CCOC(=O)c1cnc(S(C)(=O)=O)nc1N1CCC[C@@H](n2nc(-c3ccc(Oc4ccccc4)cc3)c3c(N)ncnc32)C1 [Compound 8c]

>  <Class>
True

$$$$
>  <Compound>
Cc1cnc(S(C)(=O)=O)nc1N1CCCC(n2nc(-c3ccc(Oc4ccccc4)cc3)c3c(N)ncnc32)C1 (centres unmarked) [Compound 8a]

>  <Class>
True

$$$$
>  <Compound>
CNC(=O)c1cnc(S(C)(=O)=O)nc1N1CCCC(n2nc(-c3ccc(Oc4ccccc4)cc3)c3c(N)ncnc32)C1 (centres unmarked) [Compound 8d]

>  <Class>
True

$$$$

====

Target Under Test: FGFR4 (Homo sapiens)
Construct: purchased Eurofins DiscoverX KINOMEscan (scanTK)
Sequence (P22455 22-802): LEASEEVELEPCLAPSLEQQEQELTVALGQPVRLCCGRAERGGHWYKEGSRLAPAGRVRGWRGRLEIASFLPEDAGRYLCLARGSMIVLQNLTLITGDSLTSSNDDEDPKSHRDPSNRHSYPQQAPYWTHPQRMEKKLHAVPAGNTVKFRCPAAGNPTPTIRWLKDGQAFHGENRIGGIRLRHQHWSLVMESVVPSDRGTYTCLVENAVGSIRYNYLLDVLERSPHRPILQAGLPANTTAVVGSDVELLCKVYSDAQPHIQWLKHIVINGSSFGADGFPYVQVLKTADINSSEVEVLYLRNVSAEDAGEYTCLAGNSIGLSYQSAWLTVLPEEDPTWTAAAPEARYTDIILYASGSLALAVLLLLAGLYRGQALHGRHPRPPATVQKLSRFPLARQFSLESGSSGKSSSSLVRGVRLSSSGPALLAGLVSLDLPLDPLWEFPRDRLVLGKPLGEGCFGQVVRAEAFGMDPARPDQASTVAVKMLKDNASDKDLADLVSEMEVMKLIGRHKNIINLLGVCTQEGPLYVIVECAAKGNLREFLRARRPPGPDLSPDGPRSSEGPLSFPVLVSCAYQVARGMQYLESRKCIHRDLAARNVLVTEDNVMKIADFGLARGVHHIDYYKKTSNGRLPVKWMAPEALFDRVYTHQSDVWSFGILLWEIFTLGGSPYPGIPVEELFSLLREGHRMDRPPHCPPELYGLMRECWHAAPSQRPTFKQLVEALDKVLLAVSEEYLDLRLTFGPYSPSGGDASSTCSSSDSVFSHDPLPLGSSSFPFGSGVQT
Assay Summary: KINOMEscan ScanTK
Type: binding
Condition Parameters: @1000nM, read-out: %Control
Property: remaining binding at 1 µM (%)

>  <Compound>
Cc1cnc(S(C)(=O)=O)nc1N1CCCC(n2nc(-c3ccc(Oc4ccccc4)cc3)c3c(N)ncnc32)C1 (centres unmarked)

>  <Target Under Test>
FGFR4 (Homo sapiens)

>  <Property>
remaining binding at 1 µM

>  <Meas Value>
97

$$$$
>  <Compound>
C=CC(=O)N1CCC[C@@H](n2nc(-c3ccc(Oc4ccccc4)cc3)c3c(N)ncnc32)C1 [Compound 1g, Ibrutinib, reference compound]

>  <Target Under Test>
FGFR4 (Homo sapiens)

>  <Property>
remaining binding at 1 µM

>  <Meas Value>
96

$$$$
>  <Compound>
CNC(=O)c1cnc(S(C)(=O)=O)nc1N1CCCC(n2nc(-c3ccc(Oc4ccccc4)cc3)c3c(N)ncnc32)C1 (centres unmarked)

>  <Target Under Test>
FGFR4 (Homo sapiens)

>  <Property>
remaining binding at 1 µM

>  <Meas Value>
100

$$$$
>  <Compound>
CCOC(=O)c1cnc(S(C)(=O)=O)nc1N1CCC[C@@H](n2nc(-c3ccc(Oc4ccccc4)cc3)c3c(N)ncnc32)C1

>  <Target Under Test>
FGFR4 (Homo sapiens)

>  <Property>
remaining binding at 1 µM

>  <Meas Value>
91

$$$$
>  <Compound>
COC(=O)c1cnc(S(C)(=O)=O)nc1N1CCCC(n2nc(-c3ccc(Oc4ccccc4)cc3)c3c(N)ncnc32)C1 (centres unmarked)

>  <Target Under Test>
FGFR4 (Homo sapiens)

>  <Property>
remaining binding at 1 µM

>  <Meas Value>
92

$$$$

Numbers sourced from paper PMC11345841.
